METHOD_SUMMARY: growth suppression of beta-catenin knockout HCT116, pilot screen, human colon tumor cells (AID 823);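 further: 0% = wells killed by 20 µM Hyamine and 100% = untreated DMSO cell wells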
EXPERIMENTAL_CONTEXT: CellTiter-Glo, 60 h, at 10 µM, active compounds read low
Records with an inconclusive call do not appear.
OUTCOME_MEASURE: viability (%)
Numbers only, in %.

# COMPOUND, UNIT_SYMBOL, RESULT_VALUE
records = [
    ("Cc1nn(Cc2ccc(Cl)c(Cl)c2)c(C)c1NC(=O)c1cc(C2CC2)on1", "%", 79),
    ("CCc1nnc(NC(=O)CCC(=O)O)s1", "%", 98.3),
    ("O=C1C(=C2CCCCC2)SC(=S)N1Cc1ccco1", "%", 80.2),
    ("Cc1cc(C)n(S(=O)(=O)c2cccc(Cl)c2Cl)n1", "%", 96.8),
    ("O=C(CSc1nc2ccccc2o1)NCc1ccco1", "%", 102),
]

For every item below, please supply its viability.
1. O=C1CC(c2ccccc2)CC(O)=C1C=NCCN1CCNCC1 (configuration not stated)
2. Cc1c(C(=O)NCc2ccc3c(c2)OCO3)sc2nc(-c3ccc(F)cc3)cn12
3. COc1ccc(C(=O)NCC23C=CC(O2)C2C(=O)N(Cc4ccccc4)C(=O)C23)cc1 (configuration not stated)
4. O=C(COCCOCC(=O)N(c1ccccn1)C1CCCCC1)N(c1ccccn1)C1CCCCC1
5. Cc1ccc2c(c1)c(C)c(C)n2CC(O)Cn1nc(C)cc1C (configuration not stated)
6. COC(=O)C1CCN(C(c2ccc(OC)c(OC)c2)c2sc3nc(C)nn3c2O)CC1 (configuration not stated)

stdout:
1: 99.2; 2: 108; 3: 85.1; 4: 92.3; 5: 87.1; 6: 109

For every item in the list below, what is its measured viability?
1. COC(=O)C1=C(C)N(C)C(=O)NC1c1ccc(C)cc1 (configuration not stated)
2. Cc1csc(NC(=O)C2CCCN(S(=O)(=O)c3cccnc3)C2)n1 (configuration not stated)

stdout:
105
104

Record viability per entry; entries follow.
1. O=C1NCCCC1C(=O)N1CCN(C(=O)c2ccco2)CC1 (configuration not stated)
2. COc1cc2c(cc1OC)C(C(=O)Nc1cccc(C)n1)C(c1cccnc1)N(C)C2=O (configuration not stated)
3. CCC(NC(=O)c1ccccc1NC(=O)c1ccco1)C(=O)NC1CCCCC1 (configuration not stated)

stdout:
1. 106
2. 91.7
3. 89.1

stdin: Query: viability; subject: CC1CCCC(C)N1c1nnc(N)s1 (configuration not stated)
stdout: 104
